Task for the reader: assign each of the following sequences its reported folding stability dG unfold.
- TEST_NAME: folding stability dG unfold from trypsin proteolysis; higher = more stable
Hey, just the number and the unit after it is fine.

Give recorded folding stability dG unfold. SAGGSAGGSAGGGMKVEKEESPDSTVTETITDPSSENTTIVTKEVLPDGSLKVTETKELPSAGGSAGGSAGG [r7_828_JUSTAS]
-0.224 kcal/mol

Give recorded folding stability dG unfold. SAGGSMVTETLSVEETVEPLPDGLVRVPVRTEIRVTRKDPTTGKWTTELRTEEVVLVVPASGLEAASAGGSA [r2_184_JUSTAS]
0.804 kcal/mol

Give recorded folding stability dG unfold. SAGGSAGGSAGGSAPPKVEIEVTVLVKDEDGRLYVFKAKATFDLETNELTVEVEVYELPSAGGSAGGSAGGS [r4_445_TrROS_Hall]
3.22 kcal/mol

Give recorded folding stability dG unfold. SAGGSAGGPLKVELVKAEILPGNKIIRVYRAELPTETYLAVIELHLNPDGEILSAKIKVYPLPESAGGSAGG [r6_19_TrMRF]
2.85 kcal/mol

---

- TEST_NAME: folding stability dG unfold from chymotrypsin proteolysis; higher = more stable
MEASUREMENT_KIND: folding stability dG unfold
Hey, just the number and the unit after it is fine.

Give recorded folding stability dG unfold. SAGSSAVEVDIDEELKEKLKKLIDPDKPIEITRLKTTTNETIILITEKGSGKKYIFTRNKEGKIEIKKSAGG [r19_70_JUSTAS]
2.5 kcal/mol

Give recorded folding stability dG unfold. SAGGSAGGSAGGVEIPPDKPVAIEVTSPEGPTATLIFDPKDGTVTVIEGGKPVEVPAEDFSAGGSAGGSAGG [r7_937_TrMRF]
-1.06 kcal/mol

Give recorded folding stability dG unfold. SMGSTTVTVELEFEVEDPSVFPPDTTVDVPEEVIEKLRAEGYTVTEITTTVEPTPSGRVRVRVTMTVRVDSA [r9_465_JUSTAS]
2.77 kcal/mol

Give recorded folding stability dG unfold. SAGGMIRRITIYITDPGPSAPATTTTITVDVPPDRPDVPDEEVAQRVAESIAPKTGATATVEKIEEVSAGGS [r8_101_JUSTAS]
0.406 kcal/mol

Give recorded folding stability dG unfold. SAAPADNPVLVATLTVTVTRPVSFTSPDGSTGTVPETETRTLVLVADAGNDPEALERALELARRLAETVSAG [r14_830_TrMRF]
4.04 kcal/mol

Give recorded folding stability dG unfold. SMKFTITLSNPVDGTTETIPLDVPLEELVKIIKEAHEKGGTVTITGLPEELAKEIAEKSGLDVSINPAPGSA [r9_1207_JUSTAS]
2.57 kcal/mol

Give recorded folding stability dG unfold. SAGGSAGGSAGGPKAIVTEVEVEPNTGKARLKVKVYDPVTGKFSEFEVEVETTGKDLNLSAGGSAGGSAGGS [r10_173_TrMRF]
2.37 kcal/mol

---

Task for the reader: assign each of the following sequences its reported folding stability dG unfold.
- TEST_NAME: folding stability dG unfold from trypsin proteolysis; higher = more stable
Output spec: scalar in kcal/mol, unitless text.

Give recorded folding stability dG unfold. SAGGSAGGSAGGSMTVTVTLKDGSTRTFAVPADAPLTLEQLEAAGYPAADIAEVTVTAESAGGSAGGSAGGS [r10_565_JUSTAS]
1.88

Give recorded folding stability dG unfold. SAGGMVTSTVSVDPSVPKTTTTETFSDGTRVVTTTTELPSGLTVTTTTVTVPPDGSTTATSTTTTIAPSAGG [r13_230_JUSTAS]
1.62

Give recorded folding stability dG unfold. SAGGSAGGSEATLEVEVRVDGVLVRVRVEYDLETQELRIEVEVRPLPPPPVEVRTEYRSLEDLSAGGSAGGS [r12_813_TrROS_Hall]
1.23

Give recorded folding stability dG unfold. SAGGSAGGSAGKEYIVRITLPNGKVYEFPGKLEDVVKALPPEYKDAVIEVFDPRTGKRVSSAGGSAGGSAGG [r11_353_TrMRF]
2.53

Give recorded folding stability dG unfold. SAGGMVIVVKTKEEAKKALEELLKKLFPDLKIKKIEIKEVEVEVKKKDGKKVKKKKFIVVKIEIEKESAGGS [r16_267_TrROS_Hall]
2.61

Give recorded folding stability dG unfold. SAGGSAGGSAGQPKIGVLKEELIKETYTRPVPDSDETVKEERIVVKIIKKKLNIPENLLLSAGGSAGGSAGG [r17_530_JUSTAS]
-0.447

Give recorded folding stability dG unfold. SAGGSAGGSAGGMRIRLENGEVIKIKNAKTKEELLNALKAIPGLKIEYDEETKELWIYRSAGGSAGGSAGGS [r10_792_TrROS_Hall]
1.88

Give recorded folding stability dG unfold. SAGMEKAINLAKEYAKKLGLPLESINVTEIGNSVIIEMKIPEKGETITVNIPIHPDGTISLNIKFEKKKSAG [r5_888_JUSTAS]
1.2

Give recorded folding stability dG unfold. SAGGGDWYKVTVKVDGNPEVAEALVEKLLEEVGEEVVFEPRPGEQTVTFYVPKELLPLLEELGIEVEPSAGG [r13_156_TrMRF]
2.24

Give recorded folding stability dG unfold. SAGGSDSLVTLERVEVTELEEFEEDDRPFLVKRTYTIEKVVTTDPKTGKVTTETTVTSKEEVIPPELNSAGG [r13_810_JUSTAS]
0.807

Give recorded folding stability dG unfold. SAGGSAGGSAGGKIENWKITKVETKLHPNGFPYLVIELSNEKKKIRVLIYPNGELKAFEESAGGSAGGSAGG [r7_675_TrMRF]
2.8

Give recorded folding stability dG unfold. SAGTIKELLEKLPGFSVEVDPDDGTVWVMFRMPDHYVMIEIPIDKEDGNIKGIRIHRHDPNGEPKPIPLSAG [r5_367_TrROS]
1.44

Give recorded folding stability dG unfold. SAGMPKTTVETEIRFVETEEGIEAVAEVRTETETRVVVIPGHLGPEEAIEVLEKLLEEEGLELSRVEIGSAG [r5_305_TrMRF]
0.646

Give recorded folding stability dG unfold. SAGGSAGGSAGSMTVTLTITDPRNSATTTYTVPSSNYEEFLKANPEIEKNGWTVTVDTNGSAGGSAGGSAGG [r17_176_JUSTAS]
1.15

Give recorded folding stability dG unfold. SAGGSAGGSAGGLEELKKGFKKPVFVAKIEKEVRLLPNGDLIVRYKIEGPDLELELVFSSAGGSAGGSAGGS [r10_160_TrMRF]
2.6

Give recorded folding stability dG unfold. SAMPIQIMVERDPDDGYIKVTIMFRSDSPEEAYELIETLFENLGVEVNIERYPEEGYFMIEVEIRLPPGSAG [r14_424_TrROS]
3.45

Give recorded folding stability dG unfold. SAGGSAGGSSMPFLNPDGHPAVLVEVDGSTGSLSVELRGPDGRPVLQVSVSVSGPATVTVRVGSAGGSAGGS [r12_960_JUSTAS]
2.75

Give recorded folding stability dG unfold. SAGGSYLDEVREKILKEYPLKPGEPKEIEITVPLPSGRTVKIKIPVTVDPKTGKVEAKFEVLEETKESAGGS [r16_634_JUSTAS]
0.395

Give recorded folding stability dG unfold. SAGGKKKKVITVEVPPEATAEELLAALKKADKVFIRTKDGKVREIKVGEKVSPEELKVKPGDTVEIYVSAGG [r13_399_TrROS_Hall]
1.12

Give recorded folding stability dG unfold. SKPGKTIMIMITMDNIKEFLEELPLEPNMEVEIMFMNPNGKMRTLTIRNGEIDSIEPFPNFPDYWMIMIKSA [r9_849_TrROS]
2.69

Give recorded folding stability dG unfold. SMYTADFILPDEVLKTVPLEGKSVEEALEKVKEIVKQLPPNTPLLVKISYTEVDPKTGTTRTGTITVPLKSA [r9_245_JUSTAS]
2.06

Give recorded folding stability dG unfold. SAGGSASVEIIFDPNKPTVTIYVPGPVDPNEPITLTLPGGPSLTITEIEVEKIGKEYVVKAKVTKLSAGGSA [r15_838_JUSTAS]
1.14

Give recorded folding stability dG unfold. SAGGSAPWRPITITIPGSWEEIKELAKKFVNDGNIRDVEVEPVPDPGYYKVTVWVRDPNGNWYLVFSAGGSA [r15_177_TrROS]
2.23

Give recorded folding stability dG unfold. SAGGSAGGSAGKIEIKVVKKTPNYVYYEIRFEETKKTIIVKAKSKEDAEEAAKKLLKELKSAGGSAGGSAGG [r11_848_TrROS_Hall]
2.31

Give recorded folding stability dG unfold. SAGGSAPVTPDELVERVMQYIQGQNGMPPGDTPEQMRDNGMPIKIPITVEDPDGEPIAEVEIEFPMSAGGSA [r15_391_TrROS]
0.637

Give recorded folding stability dG unfold. SAGGSAGGSMPVVVEPTTIGDIEVTRVVLPDGTVVVYTKAPTTLKVTYRPLATGEEEEEVFPELSAGGSAGG [r6_555_JUSTAS]
1.01

Give recorded folding stability dG unfold. SAGGGSFINISKKEIAEAISKLIGKDYPLEDVKVSVTTLPENKTIINVEIKLPNTTETLYIPILFDVSAGGS [r16_42_TrMRF]
2.09
